Values were extracted from paper PMC4336329.

Target: human ether-à-go-go-related gene (hERG) potassium channel (human);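 note: peak tail current of the secondary pulse compared with the same well before compound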
Sequence (Q12809 whole entry, looked up): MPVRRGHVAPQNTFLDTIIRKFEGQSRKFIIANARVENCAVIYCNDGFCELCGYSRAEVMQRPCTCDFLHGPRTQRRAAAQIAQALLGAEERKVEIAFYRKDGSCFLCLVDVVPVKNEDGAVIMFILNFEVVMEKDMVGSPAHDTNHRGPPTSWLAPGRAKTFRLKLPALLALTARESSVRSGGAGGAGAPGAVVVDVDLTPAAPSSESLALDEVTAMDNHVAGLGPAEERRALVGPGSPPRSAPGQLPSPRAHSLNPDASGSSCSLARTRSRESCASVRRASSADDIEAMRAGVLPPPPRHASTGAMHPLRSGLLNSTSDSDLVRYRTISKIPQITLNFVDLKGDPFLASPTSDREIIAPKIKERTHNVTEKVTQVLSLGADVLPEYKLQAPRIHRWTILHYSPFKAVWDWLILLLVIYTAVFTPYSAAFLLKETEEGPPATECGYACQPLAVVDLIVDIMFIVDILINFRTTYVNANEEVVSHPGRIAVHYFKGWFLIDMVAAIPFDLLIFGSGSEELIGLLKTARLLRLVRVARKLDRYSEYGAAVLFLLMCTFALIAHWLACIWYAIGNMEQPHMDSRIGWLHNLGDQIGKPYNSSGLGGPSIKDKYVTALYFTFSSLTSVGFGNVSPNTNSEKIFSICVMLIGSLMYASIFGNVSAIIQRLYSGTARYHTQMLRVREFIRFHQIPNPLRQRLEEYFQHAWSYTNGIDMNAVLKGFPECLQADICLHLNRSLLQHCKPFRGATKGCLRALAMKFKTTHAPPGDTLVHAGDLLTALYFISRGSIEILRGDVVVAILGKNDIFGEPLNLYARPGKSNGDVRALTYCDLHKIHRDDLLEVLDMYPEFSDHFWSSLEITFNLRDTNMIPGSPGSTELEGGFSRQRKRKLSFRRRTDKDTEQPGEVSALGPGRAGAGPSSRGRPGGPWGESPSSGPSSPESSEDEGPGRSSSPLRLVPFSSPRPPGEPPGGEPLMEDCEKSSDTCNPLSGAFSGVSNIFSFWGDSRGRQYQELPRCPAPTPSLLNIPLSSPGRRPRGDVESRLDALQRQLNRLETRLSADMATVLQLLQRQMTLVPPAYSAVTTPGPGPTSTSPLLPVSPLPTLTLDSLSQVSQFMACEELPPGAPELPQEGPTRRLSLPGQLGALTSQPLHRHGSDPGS
Assay: primary screen, population patch clamp on CHO cells stably expressing hERG; higher = less effect of the substance
Hit rate of the full screen: of about 310,000 compounds, about 14,000 (4.5%) showed an effect of 50% or more. Effects have a minus sign here. Many of the other results were omitted from the sample, so strong results are more common in it than they were.
PROPERTY_MEASURED: hERG current change (%, negative = inhibition) at 10uM (%)

- COMPOUND: "CCCC(c1c(C)n(C)n(-c2ccccc2)c1=O)c1c(C)n(C)n(-c2ccccc2)c1=O"
  TARGET: "human ether-à-go-go-related gene (hERG) potassium channel (human)"
  EXPERIMENTAL_VALUE: 0.692
- COMPOUND: "CCN(CC)CCNC(=O)c1cc(-c2ccco2)nc2ccccc12.Cl"
  TARGET: "human ether-à-go-go-related gene (hERG) potassium channel (human)"
  EXPERIMENTAL_VALUE: -65.5
- COMPOUND: "CCN(CCCNC(=O)C1CCC(=O)N1Cc1ccc(F)cc1)c1cccc(C)c1 (centres unmarked)"
  TARGET: "human ether-à-go-go-related gene (hERG) potassium channel (human)"
  EXPERIMENTAL_VALUE: -18.3
- COMPOUND: "CCCCOP(=O)(c1ccc(N(C)C)cc1)C(O)c1ccc(N(C)C)cc1 (centres unmarked)"
  TARGET: "human ether-à-go-go-related gene (hERG) potassium channel (human)"
  EXPERIMENTAL_VALUE: -5.3
- COMPOUND: "CCCCCCNC(=O)c1cc(-c2ccco2)nc2ccccc12"
  TARGET: "human ether-à-go-go-related gene (hERG) potassium channel (human)"
  EXPERIMENTAL_VALUE: -11.5
- COMPOUND: "CC1(C)Cc2c(c(N3CCCC3)nc3sc4c(N5CCNCC5)ncnc4c23)CO1"
  TARGET: "human ether-à-go-go-related gene (hERG) potassium channel (human)"
  EXPERIMENTAL_VALUE: -35.2
- COMPOUND: "CCN1CCN(CCNC(=O)c2ccc(/C=C3/Sc4ccccc4N(Cc4cccc(C)c4)C3=O)cc2)CC1"
  TARGET: "human ether-à-go-go-related gene (hERG) potassium channel (human)"
  EXPERIMENTAL_VALUE: -22
- COMPOUND: "CN(c1ccccc1)S(=O)(=O)c1cccc(C(=O)NCc2ccccc2CN2CCCC2)c1"
  TARGET: "human ether-à-go-go-related gene (hERG) potassium channel (human)"
  EXPERIMENTAL_VALUE: -74.6
- COMPOUND: "CCN(CC)CCNC(=O)c1cc(Nc2ccc(OC)c(OC)c2)nc2ccccc12"
  TARGET: "human ether-à-go-go-related gene (hERG) potassium channel (human)"
  EXPERIMENTAL_VALUE: -23.8
- COMPOUND: "COc1cc(/C=C(/C#N)c2nc3ccccc3[nH]2)ccc1OC(=O)c1ccco1"
  TARGET: "human ether-à-go-go-related gene (hERG) potassium channel (human)"
  EXPERIMENTAL_VALUE: -6.24
- COMPOUND: "CCN(CC)CCNC(=O)c1ccc(NC(=O)c2cc(-c3ccco3)nc3ccccc23)cc1"
  TARGET: "human ether-à-go-go-related gene (hERG) potassium channel (human)"
  EXPERIMENTAL_VALUE: -30.2
- COMPOUND: "C/C(=N\\Nc1cccc(C(=O)O)c1)c1cc2ccccc2o1"
  TARGET: "human ether-à-go-go-related gene (hERG) potassium channel (human)"
  EXPERIMENTAL_VALUE: 9.54
- COMPOUND: "CC1=C(C(=O)NCCN2CCN(C)CC2)C2(CCC(C)CC2)OC1=O (centres unmarked)"
  TARGET: "human ether-à-go-go-related gene (hERG) potassium channel (human)"
  EXPERIMENTAL_VALUE: 6.17
- COMPOUND: "O=C(/C=C/c1ccco1)Nc1ccc2nc3n(c(=O)c2c1)CCCC3"
  TARGET: "human ether-à-go-go-related gene (hERG) potassium channel (human)"
  EXPERIMENTAL_VALUE: -8.17
- COMPOUND: "O=C(Nc1cccnc1)c1cccnc1Cl"
  TARGET: "human ether-à-go-go-related gene (hERG) potassium channel (human)"
  EXPERIMENTAL_VALUE: 4.09
- COMPOUND: "CCOc1ccccc1N(C(=O)c1ccccc1Cl)C1=NC(C)(C)CS1"
  TARGET: "human ether-à-go-go-related gene (hERG) potassium channel (human)"
  EXPERIMENTAL_VALUE: -2.51
- COMPOUND: "Cn1c2ccccc2c2cc(C(=O)NNS(=O)(=O)c3ccc(F)cc3)sc21"
  TARGET: "human ether-à-go-go-related gene (hERG) potassium channel (human)"
  EXPERIMENTAL_VALUE: -5.97
- COMPOUND: "CCN(CCCNC(=O)COc1cc(=O)n(CC)c2ccccc12)Cc1ccccc1"
  TARGET: "human ether-à-go-go-related gene (hERG) potassium channel (human)"
  EXPERIMENTAL_VALUE: -19.8
- COMPOUND: "CCc1sc(-c2c(C#N)c(N)nc3c2CCCCCC3)cc1[N+](=O)[O-]"
  TARGET: "human ether-à-go-go-related gene (hERG) potassium channel (human)"
  EXPERIMENTAL_VALUE: 14
- COMPOUND: "O=C(NCC(c1cccs1)N1CCOCC1)c1ccc(Cl)c([N+](=O)[O-])c1 (centres unmarked)"
  TARGET: "human ether-à-go-go-related gene (hERG) potassium channel (human)"
  EXPERIMENTAL_VALUE: -31.9
- COMPOUND: "CCN(CC)CCCNC(=O)c1cc(Nc2ccc(OC)cc2OC)nc2ccccc12"
  TARGET: "human ether-à-go-go-related gene (hERG) potassium channel (human)"
  EXPERIMENTAL_VALUE: -36.1
- COMPOUND: "Cc1cccc(CCNC(=O)COc2cc(=O)n(C)c3ccccc23)c1"
  TARGET: "human ether-à-go-go-related gene (hERG) potassium channel (human)"
  EXPERIMENTAL_VALUE: -17.6
- COMPOUND: "CCN(CCCNC(=O)C1CCC(=O)N1Cc1ccccc1Cl)c1cccc(C)c1 (centres unmarked)"
  TARGET: "human ether-à-go-go-related gene (hERG) potassium channel (human)"
  EXPERIMENTAL_VALUE: -64.5
